assay: probe aNog binding to arrayed compounds – biochemical, biotinylated probe, 635/667 nm fluorescence, primary screen (AID 1115); conditions: small-molecule microarray, higher = more signal;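 note: probe is biotinylated aNog protein used at 0.15 µg/mL for 1 h at 4 C; z-score combines 667 nm fluorescence of each spot with its signal to noise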
Please use Met whenever composite z-score is not below -0.2, and Not met whenever it is.

Confirm if composite z-score reported for the molecule COCCOC(=O)N1C(=O)[C@@]2(c3cc(C#CCC(C(=O)OC)C(=O)OC)ccc31)[C@H](C(N)=O)[C@H]1C(=O)O[C@H](c3ccccc3)[C@H](c3ccccc3)N1[C@@H]2c1ccc(O)cc1 is -0.2 or above.
Not met

Confirm if composite z-score reported for the molecule C=C1C(=O)C=C2CN(C(=O)c3ccccc3)[C@@](Cc3ccc(OC)cc3)(C(=O)OC)[C@@H]12 is -0.2 or above.
Met

Confirm if composite z-score reported for the molecule O=C1C=C(c2ccccc2)C(=O)C2=C1CC([C@H]1Oc3ccccc3S(=O)(=O)N3CCC[C@@H]13)=CC2 is -0.2 or above.
Met

Confirm if composite z-score reported for the molecule COc1ccc([Si](C)(C)[C@H]2[C@H](CCO)O[C@@]3(C(=O)N(Cc4cccc(N(C=O)c5ccccc5)c4)c4ccccc43)[C@@H]2C)cc1 is -0.2 or above.
Met

Confirm if composite z-score reported for the molecule CC(C)C[C@H]1NC(=O)C([C@@H](C)OCc2ccccc2)NC(=O)[C@@]23C(=O)N[C@@H](Cc4ccccc4)C2[C@H](C)[C@@]2(C)O[C@H]2C3/C=C/C/C=C\CNC1=O (stereo partly specified) is -0.2 or above.
Met

Confirm if composite z-score reported for the molecule CCOC(=O)C1=CC[C@@H](c2ccccc2)N(S(=O)(=O)c2ccc(C)cc2)[C@H]1c1ccccc1I is -0.2 or above.
Not met

====

molecular target: Torsin-1A (Homo sapiens); assay: TOR1A wild-type binding on microarray – cell lysate, small-molecule microarray, lysate, 635/667 nm, primary screen (AID 1149); conditions: COS7 hTOR1A-WT lysate, 635 nm fluorescence, higher = more signal
observedProperty: composite z-score
Number, no unit, nothing else.

Request: composite z-score, test system Torsin-1A (Homo sapiens), entry O=C1C2C=CC(C(O)c3cccs3)N(Nc3ccc([N+](=O)[O-])cc3)C2C(=O)N1c1ccccc1 (centres undefined)
-0.236

Request: composite z-score, test system Torsin-1A (Homo sapiens), entry CC(C)N1C(=O)c2ccccc2[C@@H](C(=O)NCC(F)(F)F)[C@@H]1c1ccc(CO)cc1
-0.0705

Request: composite z-score, test system Torsin-1A (Homo sapiens), entry CCCCCCc1nc(Cc2cc(OC)c(OC)c(OC)c2)cc2c1[Si](C(C)C)(C(C)C)O[C@H]2c1ccccc1
0.128

Request: composite z-score, test system Torsin-1A (Homo sapiens), entry C[N+](C)(C)CCCCNC(=O)[C@H]1C[C@H]2C(=O)N[C@@H](Cc3ccccc3)C(=O)N2[C@H]1c1cccc(OCCO)c1
0.971

====

Would you mind telling me the reported z-score of each entry?
assay: hepatitis C replication reporter changes, two-sided – Huh7 cells, luciferase reporter, HCV replication inhibitor project, primary screen (AID 1109); details: Huh7 HCV replicon luciferase reporter, 48 h; higher = more signal;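 note: huh7 hepatoma cells harbouring a luciferase neomycin HCV replicon reporter; luciferase luminescence as measure of HCV replicon replication; test concentration not given here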

Entry C=CC1c2cc(O)c(OC)cc2CCN1C (stereo unspecified) : reported z-score = ?
-1.02

Entry CCCCN1CC=CC23O[C@@H]4/C=C\CCCOC(=O)C4[C@H]2C(=O)N(C(CO)C(C)C)[C@@H]3C1=O (stereo partly specified) : reported z-score = ?
-0.134

Entry CCCCC(=C=CC[C@H](O)c1ccc(CO)o1)CCO : reported z-score = ?
-0.401

Entry CC(C)OC(=O)CC(=O)CC(O)c1cccc([N+](=O)[O-])c1 (stereo unspecified) : reported z-score = ?
-1.6

Entry C=C(CCCC)/C(=C/C[C@@H](OC(C)=O)c1ccc(CO)o1)c1cnc2ccccc2c1 : reported z-score = ?
-0.756

Entry CC(C)C(=C=CC[C@H](O)c1ccccc1OCCO)C[C@H](O)COCc1ccccc1 : reported z-score = ?
-1.88
